- target desc: Neurogenic locus notch homolog protein 2 (Homo sapiens)
- experiment notes: Notch2 binders on small-molecule microarrays, primary screen, biochemical, small-molecule microarray, 635 nm fluorescence, stem cell growth factors (AID 1073)
- condition info: Notch2 binding, higher = more signal
Some compounds, each annotated with its measured composite z-score.
Just the number, please, no unit attached.

Summary line: COc1ccc(C(O)C2C=CC3C(=O)N(c4ccccc4)C(=O)C3N2Nc2ccccc2F)c2ccccc12 (configuration not stated) , Neurogenic locus notch homolog protein 2 (Homo sapiens), reported composite z-score = 1.72

Summary line: `CCOC(=O)C1=C[C@@H](C(C)(C)C)N(S(=O)(=O)c2ccc(C)cc2)[C@H]1c1ccc(OC)cc1` , Neurogenic locus notch homolog protein 2 (Homo sapiens), reported composite z-score = 1.56

Summary line: `C=C(CCCC)/C(=C/C[C@@H](OC(C)=O)c1cccc(OCCO)c1)c1cc(C(=O)OC)ccc1OC` , Neurogenic locus notch homolog protein 2 (Homo sapiens), reported composite z-score = 0.0199
